Measured pEC50 accompanies every entry in the list below.
- Target Entity: Histamine H4 receptor (Homo sapiens)
- Sequence (Q9H3N8 whole entry): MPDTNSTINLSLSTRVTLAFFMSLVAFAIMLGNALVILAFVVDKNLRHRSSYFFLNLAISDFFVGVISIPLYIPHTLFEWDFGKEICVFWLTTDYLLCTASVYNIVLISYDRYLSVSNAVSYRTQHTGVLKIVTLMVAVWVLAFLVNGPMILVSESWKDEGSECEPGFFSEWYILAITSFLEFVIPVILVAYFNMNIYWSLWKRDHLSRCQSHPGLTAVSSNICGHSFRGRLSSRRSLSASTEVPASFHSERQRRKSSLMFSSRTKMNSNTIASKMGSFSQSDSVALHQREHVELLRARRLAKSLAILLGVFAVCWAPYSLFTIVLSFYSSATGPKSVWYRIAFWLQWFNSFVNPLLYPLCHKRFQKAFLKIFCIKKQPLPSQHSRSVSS
- Assay Remarks: Agonist activity at human histamine H4 receptor expressed in sf9 cell membrane co-expressing mammalian Galphai2 and Gbeta1gamma2 incubated for 90 mins by [35S]GTPgammaS binding assay
- Type: functional
pEC50: −log10 of the molar value.
Readout Name: pEC50

Compound | Readout Name | Observed Result
CN/C(=N\C#N)NC[C@@H]1CC[C@@H](c2c[nH]cn2)C1 | pEC50 | 5.96
N#C/N=C(/NCCSc1ccccc1)N[C@H]1CC[C@@H](c2c[nH]cn2)CC1 | pEC50 | 6.96
N#C/N=C(/NCCOc1ccccc1)NC[C@H]1CC[C@H](c2c[nH]cn2)C1 (racemic) | pEC50 | 6.28
N#C/N=C(/NCCCc1ccccc1)NC[C@@H]1CC[C@H](c2c[nH]cn2)C1 (racemic) | pEC50 | 6.43
CN/C(=N\C#N)NC[C@@H]1CC[C@H](c2c[nH]cn2)C1 | pEC50 | 6.92
N#C/N=C(/NCCSc1ccccc1)NC[C@H]1CC[C@H](c2c[nH]cn2)C1 | pEC50 | 7.96
NC[C@@H]1CC[C@H](c2c[nH]cn2)C1 (racemic) | pEC50 | 6.82
CC(C)CN/C(=N/C#N)NC[C@@H]1CC[C@H](c2c[nH]cn2)C1 (racemic) | pEC50 | 6.69
N#C/N=C(/NCCCc1ccccc1)NC[C@H]1CC[C@H](c2c[nH]cn2)C1 (racemic) | pEC50 | 6.90
CN/C(=N\C#N)NC[C@H]1CC[C@H](c2c[nH]cn2)C1 (racemic) | pEC50 | 6.69
N#C/N=C(/NCCSc1ccccc1)NC[C@H]1CC[C@@H](c2c[nH]cn2)C1 | pEC50 | 6.26

###

- Target Entity: Histamine H2 receptor (Homo sapiens, UniProt P25021)
- Sequence (P25021 whole entry): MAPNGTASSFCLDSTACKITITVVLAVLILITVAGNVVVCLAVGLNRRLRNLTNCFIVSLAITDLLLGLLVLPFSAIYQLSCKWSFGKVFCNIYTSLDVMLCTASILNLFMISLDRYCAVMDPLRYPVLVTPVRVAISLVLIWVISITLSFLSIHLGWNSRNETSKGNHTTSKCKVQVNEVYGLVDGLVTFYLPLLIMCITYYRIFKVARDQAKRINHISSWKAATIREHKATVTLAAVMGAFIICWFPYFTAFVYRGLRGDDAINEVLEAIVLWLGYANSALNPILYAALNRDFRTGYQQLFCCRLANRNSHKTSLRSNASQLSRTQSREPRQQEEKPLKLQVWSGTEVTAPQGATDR
- Assay Remarks: Intrinsic activity at human histamine H2 receptor expressed in sf9 cell membrane co-expressing Gsalphas at 10 uM incubated for 90 mins by [35S]GTPgammaS binding assay relative to histamine
- Format: functional

Compound | Intrinsic activity
N#C/N=C(/NCCOc1ccccc1)NC[C@H]1CC[C@H](c2c[nH]cn2)C1 (racemic) | 0
N#C/N=C(/NCCSc1ccccc1)NC[C@H]1CC[C@H](c2c[nH]cn2)C1 | 0
N#C/N=C(/NCCNc1ccccc1)NC[C@H]1CC[C@H](c2c[nH]cn2)C1 (racemic) | 0
N#C/N=C(/NCCSc1ccccc1)NC[C@H]1CC[C@@H](c2c[nH]cn2)C1 | 0
N#C/N=C(/NCCCCc1c[nH]cn1)NCCSc1ccccc1 | 0
N#C/N=C(/NCCCc1ccccc1)NC[C@@H]1CC[C@H](c2c[nH]cn2)C1 (racemic) | 0
N#C/N=C(/NCCOc1ccccc1)NC[C@@H]1CC[C@H](c2c[nH]cn2)C1 (racemic) | 0
N#C/N=C(/NCCSc1ccccc1)NC[C@@H]1CC[C@H](c2c[nH]cn2)C1 | 0
CC(C)CN/C(=N/C#N)NC[C@H]1CC[C@H](c2c[nH]cn2)C1 (racemic) | 0
N#C/N=C(/NCCNc1ccccc1)NC[C@@H]1CC[C@H](c2c[nH]cn2)C1 (racemic) | 0
N#C/N=C(/NCCSc1ccccc1)NC[C@@H]1CC[C@@H](c2c[nH]cn2)C1 | 0
NC[C@@H]1CC[C@H](c2c[nH]cn2)C1 (racemic) | 0.19
Cc1nc[nH]c1CCN | 1
CCC(=O)/N=C(\N)NCCCc1c[nH]cn1 | 0.8
N#C/N=C(/NCCCc1ccccc1)NC[C@H]1CC[C@H](c2c[nH]cn2)C1 (racemic) | 0
CN/C(=N\C#N)NC[C@H]1CC[C@H](c2c[nH]cn2)C1 (racemic) | 0
N#C/N=C(\NC[C@@H]1CC[C@H](c2c[nH]cn2)C1)NC1CC1 (racemic) | 0
